# Test system: DIPGX37 (H3.3 K27M diffuse intrinsic pontine glioma line)
# protocol text: growth inhibition (% activity, log2 RLU normalised to DMSO / staurosporine); higher = more growth inhibition
# condition: 33 µM
Parameter growth inhibition: see the listing below.

{"compound": "CCOC(=O)c1ncn2c1CN(C)C(=O)c1cc(F)ccc1-2", "readout unit": "%", "growth inhibition": 1.71}
{"compound": "Nc1nc(N)nc(-c2cc(Cl)ccc2Cl)n1", "readout unit": "%", "growth inhibition": -3.47}
{"compound": "CC1(C)S[C@@H]2[C@H](NC(=O)C(C(=O)O)c3ccccc3)C(=O)N2[C@H]1C(=O)O (stereo not given in full)", "readout unit": "%", "growth inhibition": 2.06}
{"compound": "NC(CO)C(=O)NNCc1ccc(O)c(O)c1O (stereo not given)", "readout unit": "%", "growth inhibition": 0.574}
{"compound": "CC(C(=O)O)c1cccc(C(=O)c2ccccc2)c1 (stereo not given)", "readout unit": "%", "growth inhibition": -1.31}
{"compound": "Nc1nc(=O)c2c([nH]1)NCC(CNc1ccc(C(=O)N[C@@H](CCC(=O)O)C(=O)O)cc1)N2C=O (stereo not given in full)", "readout unit": "%", "growth inhibition": 0.652}
{"compound": "CN[C@@H]1[C@H](O[C@H]2[C@H](O[C@H]3[C@H](O)[C@@H](O)[C@H](N=C(N)N)[C@@H](O)[C@@H]3N=C(N)N)O[C@@H](C)[C@]2(O)C=O)O[C@@H](CO)[C@H](O)[C@H]1O", "readout unit": "%", "growth inhibition": -5.46}
{"compound": "CN(C)CCc1c[nH]c2ccc(CS(=O)(=O)N3CCCC3)cc12", "readout unit": "%", "growth inhibition": 3.12}
{"compound": "C[C@@H](Oc1cc(-c2cnn(C3CCNCC3)c2)cnc1N)c1c(Cl)ccc(F)c1Cl", "readout unit": "%", "growth inhibition": 7.08}
{"compound": "O=C1[C@H](CC[C@H](O)c2ccc(F)cc2)[C@@H](c2ccc(O)cc2)N1c1ccc(F)cc1", "readout unit": "%", "growth inhibition": -1.79}
{"compound": "CC(=O)O[C@H]1CC[C@@]2(C)C(=CC[C@@H]3[C@@H]2CC[C@]2(C)C(c4cccnc4)=CC[C@@H]32)C1", "readout unit": "%", "growth inhibition": -0.0357}
{"compound": "COc1ccc(Cl)cc1C(=O)NCCc1ccc(S(=O)(=O)NC(=O)NC2CCCCC2)cc1", "readout unit": "%", "growth inhibition": 1.98}
{"compound": "O=C(O)CCCN1CCC(O[C@@H](c2ccc(Cl)cc2)c2ccccn2)CC1", "readout unit": "%", "growth inhibition": 0.504}
{"compound": "C[C@]12CC[C@@H]3c4ccc(O)cc4CC[C@H]3[C@@H]1C[C@@H](O)[C@@H]2O", "readout unit": "%", "growth inhibition": -2.04}
{"compound": "N[C@@H](Cc1cc(I)c(Oc2ccc(O)c(I)c2)c(I)c1)C(=O)O", "readout unit": "%", "growth inhibition": 3.94}
{"compound": "CC(C)c1nc(CN(C)C(=O)N[C@H](C(=O)N[C@@H](Cc2ccccc2)C[C@H](O)[C@H](Cc2ccccc2)NC(=O)OCc2cncs2)C(C)C)cs1", "readout unit": "%", "growth inhibition": 2.67}
{"compound": "Cc1noc(NS(=O)(=O)c2ccc(N)cc2)c1C", "readout unit": "%", "growth inhibition": -0.401}
{"compound": "CCOC(=O)c1ccc(C#Cc2ccc3c(c2)C(C)(C)CCS3)nc1", "readout unit": "%", "growth inhibition": -0.285}
{"compound": "C[C@@H](O)[C@H]1C(=O)N2C(C(=O)O)=C(S[C@@H]3CN[C@H](CNS(N)(=O)=O)C3)[C@H](C)[C@H]12", "readout unit": "%", "growth inhibition": -1.74}
{"compound": "CNC1CCCN(c2c(F)cc3c(=O)c(C(=O)O)cn(C4CC4)c3c2OC)C1 (stereo not given)", "readout unit": "%", "growth inhibition": 0.515}
{"compound": "CCc1nc(N)nc(N)c1-c1ccc(Cl)cc1", "readout unit": "%", "growth inhibition": 2.67}
{"compound": "OC(CCN1CCCC1)(c1ccccc1)C1CCCCC1 (stereo not given)", "readout unit": "%", "growth inhibition": 0.342}
{"compound": "Cc1ccc(S(=O)(=O)NC(=O)NN2CC3CCCC3C2)cc1 (stereo not given)", "readout unit": "%", "growth inhibition": 1.27}
{"compound": "COc1ccc2cc1Oc1ccc(cc1)C[C@H]1c3c(cc4c(c3Oc3cc5c(cc3OC)CCN(C)[C@@H]5C2)OCO4)CCN1C", "readout unit": "%", "growth inhibition": 2.93}
{"compound": "CCOc1ccccc1OC(c1ccccc1)C1CNCCO1 (stereo not given)", "readout unit": "%", "growth inhibition": 2.23}
{"compound": "CCOCC(O)COc1ccc(NC(=O)CC[S+](C)C)cc1 (stereo not given)", "readout unit": "%", "growth inhibition": -0.984}
{"compound": "CC(=O)Oc1ccccc1C(=O)O", "readout unit": "%", "growth inhibition": 2.47}
{"compound": "CC(C)(C)c1ccc(C(O)CCCN2CCC(C(O)(c3ccccc3)c3ccccc3)CC2)cc1 (stereo not given)", "readout unit": "%", "growth inhibition": -0.074}
{"compound": "CC1(C(=O)O)CCC2(C)CCC3(C)C(=CC(=O)C4C5(C)CCC(OC6OC(C(=O)O)C(O)C(O)C6OC6OC(C(=O)O)C(O)C(O)C6O)C(C)(C)C5CCC43C)C2C1 (stereo not given)", "readout unit": "%", "growth inhibition": 0.376}
{"compound": "Clc1ccc(C(Cn2ccnc2)OCc2ccc(Sc3ccccc3)cc2)c(Cl)c1 (stereo not given)", "readout unit": "%", "growth inhibition": 0.833}
{"compound": "CC[C@H]1OC(=O)[C@H](C)[C@@H](O[C@H]2C[C@@](C)(OC)[C@@H](O)[C@H](C)O2)[C@H](C)[C@@H](O[C@@H]2O[C@H](C)C[C@H](N(C)C)[C@H]2O)[C@](C)(OC)C[C@@H](C)C(=O)[C@H](C)[C@@H](O)[C@]1(C)O", "readout unit": "%", "growth inhibition": 0.02}
{"compound": "OC[C@H]1O[C@H](O[C@]2(CCl)O[C@H](CCl)[C@@H](O)[C@@H]2O)[C@H](O)[C@@H](O)[C@H]1Cl", "readout unit": "%", "growth inhibition": -0.64}
{"compound": "CCOC(=O)[C@H](CCc1ccccc1)N[C@@H](C)C(=O)N1Cc2ccccc2C[C@H]1C(=O)O", "readout unit": "%", "growth inhibition": 1.99}
{"compound": "CNC(CC(C)C)C(=O)NC1C(=O)NC(CC(N)=O)C(=O)NC2C(=O)NC3C(=O)NC(C(=O)NC(C(=O)O)c4cc(O)cc(O)c4-c4cc3ccc4O)C(O)c3ccc(c(Cl)c3)Oc3cc2cc(c3OC2OC(CO)C(O)C(O)C2OC2CC(C)(N)C(O)C(C)O2)Oc2ccc(cc2Cl)C1O (stereo not given)", "readout unit": "%", "growth inhibition": -1.91}
{"compound": "CCCCN(CCCC)CCCOC(=O)c1ccc(N)cc1", "readout unit": "%", "growth inhibition": 2.29}

FYI, the data here is from the supplement of paper PMC8253809.
